Assay: Inhibition of dehydratase (unknown origin)
Parameters: species or system Homo sapiens
measurement-label: IC50

Inquiry: Give the reported value of IC50 for this record: O=C(c1ccc(-c2ccccc2)cc1)N1CCN(C(=O)C2CCCO2)CC1 (racemic)
Reply text: > 50 µM

---

Assign remaining at 1 h to each entry below.
Experiment: Stability in mouse liver S9 fraction after 1 hr
Type: ADME, subcellular
Details: read-out: Stability
One number for each entry, in %.

Worked examples, 3 compounds total:
input-smiles | measurement-label | reported
O=C(c1ccc(-c2ccc3cnccc3c2)cc1)N1CCN(C(=O)C2(O)CC2)CC1 | remaining at 1 h | 0
Cn1ncc2ccc(-c3ccc(C(=O)N4CCN(C(=O)C5(O)CC5)CC4)cc3)cc21 | remaining at 1 h | 75
O=C(c1ccc(-c2nc3ccc(F)cc3o2)cc1)N1CCN(C(=O)C2(O)CC2)CC1 | remaining at 1 h | 83

// next entry
Inquiry: // Input: O=C(c1ccc(-c2ccc(Cl)cc2F)cc1)N1CCN(C(=O)C2(O)CC2)CC1 . Output its remaining at 1 h only.
Reply text: 70

---

For each of the molecules below, state its log10 solubility kinetic.
Experiment: Kinetic solubility of compound at pH 7.4
Assay type: physicochemical
Details: buffer, read-out: Kinetic_solubility
Quick note: numbers are log10 of solubility kinetic, with µM as the unit.

Worked examples follow.
input-smiles | log10 solubility kinetic
O=C(c1ccc(-c2nc3ccccc3s2)cc1)N1CCN(C(=O)C2(O)CC2)CC1 | 1.26
O=C(c1ccc(-c2cnc3ccccc3c2)cc1)N1CCN(C(=O)C2(O)CC2)CC1 | 1.91
O=C(c1ccc(-c2ccc(F)cc2Cl)cc1)N1CCN(C(=O)C2(O)CC2)CC1 | 1.83

# batch size: 2; output log10 solubility kinetic per entry
1. O=C(c1ccc(-c2ccc3scnc3c2)cc1)N1CCN(C(=O)C2(O)CC2)CC1
2. Cn1ccc2cc(-c3ccc(C(=O)N4CCN(C(=O)C5(O)CC5)CC4)cc3)ccc21

Reply text:
1.98
0.48

---

System: PC-3
Test: Antiproliferative activity against human PC3 cells after 96 hrs by MTT assay
Assay type: functional, cell-based
Settings: PC-3, 96 h
# MET = IC50 below 50 nM (exclusive); NOT MET = IC50 at/above 50 nM

input-smiles | experimental-system | class-label
O=C(c1ccc(-c2nc3ccc(F)cc3o2)cc1)N1CCN(C(=O)C2(O)CC2)CC1 | PC-3 | MET

Inquiry: Quick check: does O=C(c1ccc(-c2nc3ccccc3s2)cc1)N1CCN(C(=O)C2(O)CC2)CC1 have IC50 under 50 nM?
Reply text: NOT MET

Inquiry: Hello, is IC50 of the following molecule strictly smaller than 50 nM? O=C(c1ccc(-c2nc3cc(F)ccc3o2)cc1)N1CCN(C(=O)C2(O)CC2)CC1
Reply text: NOT MET

Inquiry: Lab note: IC50 threshold 50 nM. Does this molecule come in strictly under it? O=C(c1ccc(-c2ccc3ocnc3c2)cc1)N1CCN(C(=O)C2(O)CC2)CC1
Reply text: NOT MET

Inquiry: Is IC50 strictly under 50 nM for the entry O=C(c1ccc(-c2nc3ccccc3o2)cc1)N1CCN(C(=O)C2(O)CC2)CC1 ?
Reply text: MET

---

Molecular target: Fatty acid synthase (Homo sapiens)
Sequence (P49327 whole entry): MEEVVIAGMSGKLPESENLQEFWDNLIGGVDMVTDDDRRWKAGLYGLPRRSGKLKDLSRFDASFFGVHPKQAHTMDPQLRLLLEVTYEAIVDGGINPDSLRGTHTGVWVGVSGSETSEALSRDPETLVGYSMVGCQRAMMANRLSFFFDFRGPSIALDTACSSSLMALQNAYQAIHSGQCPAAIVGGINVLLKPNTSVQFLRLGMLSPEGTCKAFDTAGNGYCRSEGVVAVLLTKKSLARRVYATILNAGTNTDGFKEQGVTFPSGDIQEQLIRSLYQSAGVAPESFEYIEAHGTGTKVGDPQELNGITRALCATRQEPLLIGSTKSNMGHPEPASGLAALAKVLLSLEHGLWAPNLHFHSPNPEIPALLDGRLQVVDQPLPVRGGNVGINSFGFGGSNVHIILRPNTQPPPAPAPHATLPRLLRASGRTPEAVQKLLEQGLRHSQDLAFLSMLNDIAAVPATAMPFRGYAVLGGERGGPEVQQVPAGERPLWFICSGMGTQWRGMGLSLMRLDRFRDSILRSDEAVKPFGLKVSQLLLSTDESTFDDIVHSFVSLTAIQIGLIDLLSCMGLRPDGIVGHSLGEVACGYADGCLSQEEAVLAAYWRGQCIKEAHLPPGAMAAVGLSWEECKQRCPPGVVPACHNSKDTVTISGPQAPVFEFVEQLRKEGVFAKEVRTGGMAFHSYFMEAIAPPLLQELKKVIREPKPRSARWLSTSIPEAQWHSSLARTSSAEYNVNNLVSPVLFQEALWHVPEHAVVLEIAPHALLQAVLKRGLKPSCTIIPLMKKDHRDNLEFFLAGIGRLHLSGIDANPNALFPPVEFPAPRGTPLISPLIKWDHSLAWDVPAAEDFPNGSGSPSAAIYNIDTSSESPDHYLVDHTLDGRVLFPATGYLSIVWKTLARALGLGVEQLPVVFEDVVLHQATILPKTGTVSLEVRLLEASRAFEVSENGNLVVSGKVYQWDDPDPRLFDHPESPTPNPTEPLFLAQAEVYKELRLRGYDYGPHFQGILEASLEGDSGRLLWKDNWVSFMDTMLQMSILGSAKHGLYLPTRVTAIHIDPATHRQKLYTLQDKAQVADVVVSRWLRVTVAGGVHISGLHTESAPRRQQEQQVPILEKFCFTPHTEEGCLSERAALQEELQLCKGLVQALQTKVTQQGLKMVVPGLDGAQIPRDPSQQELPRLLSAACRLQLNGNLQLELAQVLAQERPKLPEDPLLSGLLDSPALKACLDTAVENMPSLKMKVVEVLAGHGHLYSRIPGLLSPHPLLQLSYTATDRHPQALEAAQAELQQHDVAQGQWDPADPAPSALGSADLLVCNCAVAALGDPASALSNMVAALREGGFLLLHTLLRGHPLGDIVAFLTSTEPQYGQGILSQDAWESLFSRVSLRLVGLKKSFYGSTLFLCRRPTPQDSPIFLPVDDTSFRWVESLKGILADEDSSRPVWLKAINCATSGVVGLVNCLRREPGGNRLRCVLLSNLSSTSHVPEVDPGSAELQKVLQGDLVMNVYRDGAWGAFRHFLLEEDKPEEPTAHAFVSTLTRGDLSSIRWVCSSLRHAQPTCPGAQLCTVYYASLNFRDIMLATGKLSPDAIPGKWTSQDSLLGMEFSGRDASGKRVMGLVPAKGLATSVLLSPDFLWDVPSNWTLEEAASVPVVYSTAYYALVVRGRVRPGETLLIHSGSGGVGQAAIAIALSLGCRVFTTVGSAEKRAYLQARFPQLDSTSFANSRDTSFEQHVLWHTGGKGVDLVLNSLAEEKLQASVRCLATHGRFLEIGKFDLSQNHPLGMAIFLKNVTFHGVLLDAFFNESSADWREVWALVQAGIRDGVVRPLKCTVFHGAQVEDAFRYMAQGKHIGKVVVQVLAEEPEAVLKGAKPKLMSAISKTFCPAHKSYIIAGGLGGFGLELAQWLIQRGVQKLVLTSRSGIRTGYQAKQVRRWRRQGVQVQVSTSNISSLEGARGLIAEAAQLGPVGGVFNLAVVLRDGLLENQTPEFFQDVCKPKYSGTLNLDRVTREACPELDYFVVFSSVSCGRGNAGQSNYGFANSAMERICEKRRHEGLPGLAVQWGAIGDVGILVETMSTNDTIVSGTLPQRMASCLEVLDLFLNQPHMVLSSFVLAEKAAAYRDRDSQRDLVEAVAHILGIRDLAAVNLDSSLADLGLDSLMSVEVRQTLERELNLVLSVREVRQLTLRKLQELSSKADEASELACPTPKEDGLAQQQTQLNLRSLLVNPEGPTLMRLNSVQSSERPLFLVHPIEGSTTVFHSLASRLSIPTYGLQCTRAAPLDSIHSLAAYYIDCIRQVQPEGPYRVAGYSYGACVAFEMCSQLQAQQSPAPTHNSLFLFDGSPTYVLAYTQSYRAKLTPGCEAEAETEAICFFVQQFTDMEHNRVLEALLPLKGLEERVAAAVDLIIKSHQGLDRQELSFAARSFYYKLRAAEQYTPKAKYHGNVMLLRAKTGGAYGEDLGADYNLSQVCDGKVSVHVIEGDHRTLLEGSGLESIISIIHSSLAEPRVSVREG
Experiment: Inhibition of full length recombinant human FASN using acetyl-CoA/malonyl-CoA as substrate preincubated for 60 mins followed by substrate addition and measured after 90 mins in presence of NADPH
Please note: IC50 exactly at 100 nM is not met. Only values below 100 nM get met.

Some solved cases for reference:
molecule | class-label
CC(C)(O)C(=O)N1CCN(C(=O)c2ccc(-c3ccccc3)cc2)CC1 | not met
O=C(c1ccc(-c2nc3ccccc3o2)cc1)N1CCN(C(=O)C2(O)CC2)CC1 | met
O=C(c1ccc(-c2nc3ccccc3s2)cc1)N1CCN(C(=O)C2(O)CC2)CC1 | met
O=C(c1ccc(-c2cnc3cccnc3c2)cc1)N1CCN(C(=O)C2(O)CC2)CC1 | not met
O=C(c1ccc(-c2ccc3ccccc3n2)cc1)N1CCN(C(=O)C2(O)CC2)CC1 | met
O=C(c1ccc(-c2ccc3cnccc3c2)cc1)N1CCN(C(=O)C2(O)CC2)CC1 | met
O=C(c1ccc(-c2ccc3ocnc3c2)cc1)N1CCN(C(=O)C2(O)CC2)CC1 | not met
O=C(c1ccc(-c2nc3cc(Cl)ccc3o2)cc1)N1CCN(C(=O)C2(O)CC2)CC1 | met

Inquiry: Is the reported IC50 for COc1ccc(-c2ccc(C(=O)N3CCN(C(=O)C4(O)CC4)CC3)cc2)c(Cl)c1 strictly below 100 nM?
Reply text: not met

Inquiry: Here's an entry: O=C(c1ccc(-c2ccc3scnc3c2)cc1)N1CCN(C(=O)C2(O)CC2)CC1 . Is its IC50 below 100 nM?
Reply text: met
